- System: Hs-578T
- PROTOCOL SUMMARY: NCI tumour cell line growth inhibition, 48 h
Active and inactive are the calls of the source. Cut-off read from the data, not from the text of the source: active = GI50 up to about 1.1 µM and inactive = higher.
Mark one answer only. Choices: Y (active), N (inactive)

Use the examples below as a reference point.
MOLECULE | CLASSIFICATION
c1cc2c(cc1NC1=NCCO1)CCC2 | Y
Cc1ccc(O)c(Cc2nc3ccccc3nc2-c2cccc(Cl)c2)c1 | N
CCCCC/C(=N\c1[nH]cnc1C(N)=O)OCC | N
O=C1OC(c2ccco2)=N/C1=C\c1cccc([N+](=O)[O-])c1 | N
CC(C(=O)[O-])S(=O)(=O)O.CCc1c2cc(OC)c(OC)cc2cc2c3cc(OC)c(OC)cc3cc[n+]12 | N

# lookup: test call for N=C(N)NCCCC(NC(=O)OCCCCn1ccc(N)nc1=O)C(=O)O (centres undefined)
N

Please let me know the test result on file for C[C@H]1S[C@H](c2c(F)cccc2F)n2c1nc1ccccc12 .
N

Returns: the outcome recorded for O=C(N/N=C\c1ccc(Cl)cc1)Nc1ccc2ccccc2c1 in this assay.
N

The reported numbers originate from ChEMBL document CHEMBL1201862.
